- Study System: 72 kDa type IV collagenase (Homo sapiens)
- Sequence (P08253 whole entry): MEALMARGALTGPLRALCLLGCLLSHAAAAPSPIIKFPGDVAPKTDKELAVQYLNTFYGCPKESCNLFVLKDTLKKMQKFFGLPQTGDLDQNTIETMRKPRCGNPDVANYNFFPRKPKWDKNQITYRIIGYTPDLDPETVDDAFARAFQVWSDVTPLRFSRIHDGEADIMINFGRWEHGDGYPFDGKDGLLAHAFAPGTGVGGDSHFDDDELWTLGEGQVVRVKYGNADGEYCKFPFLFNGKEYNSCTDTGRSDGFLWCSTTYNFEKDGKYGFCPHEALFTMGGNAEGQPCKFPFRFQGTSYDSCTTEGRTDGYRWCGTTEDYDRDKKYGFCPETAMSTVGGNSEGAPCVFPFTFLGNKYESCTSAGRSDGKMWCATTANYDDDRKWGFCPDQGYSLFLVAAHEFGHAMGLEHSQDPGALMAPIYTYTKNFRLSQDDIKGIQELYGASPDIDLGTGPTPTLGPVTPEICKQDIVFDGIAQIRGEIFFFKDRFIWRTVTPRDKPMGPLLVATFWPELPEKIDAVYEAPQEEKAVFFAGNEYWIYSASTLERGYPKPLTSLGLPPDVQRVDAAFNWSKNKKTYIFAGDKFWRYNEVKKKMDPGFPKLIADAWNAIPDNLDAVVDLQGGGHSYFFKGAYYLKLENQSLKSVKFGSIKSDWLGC
- Procedure Details: Inhibition of human bowes melanoma cell MMP2
Quantity Name: IC50 (µM⁻¹)

I: CC(C)(C)c1ccc(OC[C@H](Cn2ccnc2[N+](=O)[O-])OC(=O)c2ccc(NC=C3C(=O)C=CC3=O)cc2)cc1
II: COC[C@@H](Cn1ccnc1[N+](=O)[O-])OC(=O)c1ccc(NC=C2C(=O)C=CC2=O)cc1
Could you tell me which of these two has the smaller IC50 figure? First: I Second: II Selection: enter the item's label. II

---

- Study System: Matrix metalloproteinase-9 (Bos taurus, UniProt P52176)
- Sequence (P52176 whole entry): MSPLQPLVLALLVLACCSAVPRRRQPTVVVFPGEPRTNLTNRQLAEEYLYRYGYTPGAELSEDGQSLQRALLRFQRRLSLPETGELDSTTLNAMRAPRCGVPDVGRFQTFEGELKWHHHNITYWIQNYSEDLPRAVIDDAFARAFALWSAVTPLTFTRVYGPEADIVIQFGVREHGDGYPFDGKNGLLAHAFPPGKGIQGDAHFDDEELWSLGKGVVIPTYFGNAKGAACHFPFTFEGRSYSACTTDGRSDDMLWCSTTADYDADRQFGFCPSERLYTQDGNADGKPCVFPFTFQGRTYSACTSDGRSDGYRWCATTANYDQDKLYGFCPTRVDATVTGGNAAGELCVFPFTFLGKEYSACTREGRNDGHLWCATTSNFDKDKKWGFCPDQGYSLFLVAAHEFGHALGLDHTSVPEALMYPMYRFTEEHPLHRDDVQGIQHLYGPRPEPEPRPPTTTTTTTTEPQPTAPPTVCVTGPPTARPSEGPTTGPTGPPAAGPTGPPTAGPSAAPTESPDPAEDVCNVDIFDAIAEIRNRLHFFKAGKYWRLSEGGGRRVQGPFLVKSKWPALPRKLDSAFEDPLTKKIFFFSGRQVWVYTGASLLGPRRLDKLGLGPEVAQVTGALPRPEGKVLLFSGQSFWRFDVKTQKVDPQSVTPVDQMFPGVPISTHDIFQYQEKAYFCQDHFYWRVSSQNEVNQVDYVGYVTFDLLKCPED
- Procedure Details: Inhibition of bovine arterial endothelial cell MMP9
- Format: cell-based
Quantity Name: IC50 (µM⁻¹)

COC[C@@H](Cn1ccnc1[N+](=O)[O-])OC(=O)c1ccc(NC=C2C(=O)C=CC2=O)cc1 : 53

1: CC(C)(C)c1ccc(OC[C@@H](Cn2ccnc2[N+](=O)[O-])OC(=O)c2ccc(NC=C3C(=O)C=CC3=O)cc2)cc1
2: CC(C)(C)c1ccc(OC[C@H](Cn2ccnc2[N+](=O)[O-])OC(=O)c2ccc(NC=C3C(=O)C=CC3=O)cc2)cc1
Please state the entry with greater IC50 among 1 and 2 . Selection: enter the item's label. 2
(2: 103 µM⁻¹, 1: 67 µM⁻¹)

// provenance: ChEMBL document CHEMBL1150377
